Protein target, amino acids: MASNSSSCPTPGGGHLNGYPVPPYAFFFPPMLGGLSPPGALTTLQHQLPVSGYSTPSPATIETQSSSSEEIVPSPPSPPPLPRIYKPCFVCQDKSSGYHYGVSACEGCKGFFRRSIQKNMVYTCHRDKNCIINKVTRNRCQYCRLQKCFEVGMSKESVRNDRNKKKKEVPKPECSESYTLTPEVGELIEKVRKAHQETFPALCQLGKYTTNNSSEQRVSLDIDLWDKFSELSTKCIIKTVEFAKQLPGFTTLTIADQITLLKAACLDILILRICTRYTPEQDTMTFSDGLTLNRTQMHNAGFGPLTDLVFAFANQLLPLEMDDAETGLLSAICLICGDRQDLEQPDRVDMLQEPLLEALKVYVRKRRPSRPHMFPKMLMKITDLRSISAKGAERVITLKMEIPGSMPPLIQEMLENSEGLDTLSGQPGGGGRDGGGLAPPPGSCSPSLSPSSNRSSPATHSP
property.measured: Kd

// Kd lookup, key: COCCOCOc1cc2ccc(-c3ccc(C(=O)O)cc3)cc2cc1C12CC3CC(CC(C3)C1)C2
> 2250 nM

====

Molecular target: RAR-γ (Homo sapiens, UniProt P13631)
Sequence (P13631 1-454): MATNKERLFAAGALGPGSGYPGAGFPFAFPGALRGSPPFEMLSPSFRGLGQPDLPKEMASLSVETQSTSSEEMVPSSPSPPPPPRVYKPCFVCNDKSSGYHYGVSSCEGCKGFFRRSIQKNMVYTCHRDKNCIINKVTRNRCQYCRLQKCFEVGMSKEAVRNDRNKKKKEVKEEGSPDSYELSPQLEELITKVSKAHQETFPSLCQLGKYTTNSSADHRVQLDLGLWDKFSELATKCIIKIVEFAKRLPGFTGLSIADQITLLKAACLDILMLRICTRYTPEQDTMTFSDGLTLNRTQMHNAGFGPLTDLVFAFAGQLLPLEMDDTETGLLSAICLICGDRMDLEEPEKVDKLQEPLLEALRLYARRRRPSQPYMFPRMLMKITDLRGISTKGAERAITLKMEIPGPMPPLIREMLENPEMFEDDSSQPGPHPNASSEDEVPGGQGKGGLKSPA
property.measured: Kd (nM)
Numbers only, in nM.

Form field: Kd recorded for COCCOCOc1cc2ccc(-c3ccc(C(=O)O)cc3)cc2cc1C12CC3CC(CC(C3)C1)C2 with RAR-γ (Homo sapiens, UniProt P13631) (enter value)
110

All values here come from patent US6063797A.
